# Measured target: MKNK1 (Homo sapiens, UniProt Q9BUB5, T385D)
# Construct: GST (N); purchased Carna Biosciences 02-145; host or cells: insect cells (baculovirus expression system)
# Sequence (Q9BUB5 1-424 isoform Q9BUB5-2 T344D): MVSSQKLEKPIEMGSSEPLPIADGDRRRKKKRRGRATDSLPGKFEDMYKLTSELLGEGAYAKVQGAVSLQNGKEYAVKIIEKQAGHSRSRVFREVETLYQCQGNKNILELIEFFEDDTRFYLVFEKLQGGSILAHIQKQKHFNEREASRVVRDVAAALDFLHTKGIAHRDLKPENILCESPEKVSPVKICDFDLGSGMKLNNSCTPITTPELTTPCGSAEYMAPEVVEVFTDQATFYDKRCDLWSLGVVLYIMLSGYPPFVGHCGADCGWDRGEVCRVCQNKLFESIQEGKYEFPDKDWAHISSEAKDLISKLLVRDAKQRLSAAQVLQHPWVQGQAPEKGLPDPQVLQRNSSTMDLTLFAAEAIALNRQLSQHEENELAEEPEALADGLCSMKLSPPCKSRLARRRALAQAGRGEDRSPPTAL
# Method notes: MKNK1 kinase high ATP assay (TR-FRET-based)
# Format: biochemical
# Condition notes: Table 2a; 2 mM ATP, 15 min preincubation
Listed here: items and their measured IC50.

>  <Molecule>
O=C(CC1CC1)N1CCC[C@H]1CCOc1ccc2ncc(-c3cc4ccccc4o3)n2n1

>  <IC50>
3.2 nM

$$$$
>  <Molecule>
CC(=O)NC[C@@H](C)Oc1ccc2ncc(-c3cc4ccccc4o3)n2n1

>  <IC50>
47.7 nM

$$$$
>  <Molecule>
O=C(c1ccc[nH]1)N1CCC[C@H]1CCOc1ccc2ncc(-c3cc4ccccc4o3)n2n1

>  <IC50>
6.7 nM

$$$$
>  <Molecule>
O=C(c1ccccn1)N1CCC[C@H]1CCOc1ccc2ncc(-c3cc4ccccc4o3)n2n1

>  <IC50>
6.8 nM

$$$$
>  <Molecule>
Cn1ccc(C(=O)N2CCC[C@H]2CCOc2ccc3ncc(-c4cc5ccccc5o4)n3n2)n1

>  <IC50>
3.2 nM

$$$$
>  <Molecule>
CC(C)(C)C(=O)N1CCC[C@H]1CCOc1ccc2ncc(-c3cc4ccccc4o3)n2n1 [Example I-3]

>  <IC50>
4.8 nM

$$$$
>  <Molecule>
O=C(C1CC1)N1CCC[C@H]1CCOc1ccc2ncc(-c3cc4ccccc4o3)n2n1

>  <IC50>
2.3 nM

$$$$
>  <Molecule>
CN(C)C(=O)COc1ccc2ncc(-c3cc4ccccc4o3)n2n1

>  <IC50>
56.2 nM

$$$$
